Measured on: Substance-P receptor (Homo sapiens)
Sequence (P25103 whole entry): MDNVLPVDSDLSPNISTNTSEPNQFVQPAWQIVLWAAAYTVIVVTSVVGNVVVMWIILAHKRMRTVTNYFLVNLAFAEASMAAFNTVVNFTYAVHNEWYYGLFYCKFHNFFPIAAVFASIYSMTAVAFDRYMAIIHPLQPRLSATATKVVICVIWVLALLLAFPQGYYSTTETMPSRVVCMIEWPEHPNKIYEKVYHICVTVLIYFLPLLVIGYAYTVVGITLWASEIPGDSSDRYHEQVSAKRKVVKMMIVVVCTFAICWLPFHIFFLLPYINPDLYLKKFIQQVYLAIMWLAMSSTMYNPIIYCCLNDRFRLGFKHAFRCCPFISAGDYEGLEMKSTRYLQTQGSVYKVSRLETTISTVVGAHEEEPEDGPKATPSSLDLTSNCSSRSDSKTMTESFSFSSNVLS
Format: cell membranes, Membrane
Study conditions: cho; further: in other assays of this panel Not Active means under 50% inhibition at 10 µM
Where a SMILES comes first, the peptide text is derived from it. Bridges are numbered along the chain shown (N, C = ends). [ ]: non-standard residue; d: D form. The star is where a group is joined. Threoninol(2S,3R) = C[C@@H](O)[C@H](CO)N*
Measured endpoint: IC50

Study these solved cases before continuing.
C[C@@H](O)[C@H](CO)NC(=O)[C@@H]1CSSC[C@H](NC(=O)[C@H](N)Cc2ccccc2)C(=O)N[C@@H](Cc2ccccc2)C(=O)N[C@H](Cc2c[nH]c3ccccc23)C(=O)N[C@@H](CCCCN)C(=O)N[C@@H]([C@@H](C)O)C(=O)N1 (H-[dF]CF[dW]KTC-{Threoninol(2S,3R)}; disulfide 2-7) :: Not Active
CCOC(=O)C1=C(C)NC(C)=C(C(=O)OC)C1c1cccc([N+](=O)[O-])c1 (stereo unspecified) :: Not Active
CC(C)Cc1ccc(C(C)C(=O)O)cc1 (stereo unspecified) :: Not Active
COc1ccc2c(c1)c(CC(=O)O)c(C)n2C(=O)c1ccc(Cl)cc1 :: Not Active
S=C=Nc1cccc2ccccc12 [1-NAPHTHYLISOTHIOCYANATE] :: Not Active

Now turn to the next compound.
Look up IC50: `C[C@H]1C[C@H]2[C@@H]3CCC4=CC(=O)C=C[C@]4(C)[C@@]3(Cl)[C@@H](O)C[C@]2(C)[C@@]1(O)C(=O)CO`
Not Active
